Just for reference, PubChem BioAssay (NCATS) is where these values come from.

Experiment: qHTS of pediatric cancer cell lines to identify multiple opportunities for drug repurposing: Primary screen for Rh18 cells (AID 1347102); also: nearly all actives have a fitted effect of over 65% in size
Conditions: Rh18 rhabdomyosarcoma viability, CellTiter-Glo luminescence, 48 h; series mostly up to 46 µM
Inconclusive results are not listed. Activity calls are given as the source filed them. Calls follow the shape of the dose curve; as a rule, active = well fitted cell-killing curve with a large enough effect; inconclusive = small, poorly fitted or top-dose-only effect; inactive = flat fitted curve, though single readings scatter.
In this exercise, the only acceptable responses are active, inactive

Query: In this assay, the call recorded for COc1ccc2[nH]cc(CCNC(C)=O)c2c1 was what?
Result: inactive

Query: In this assay, the call recorded for C[C@@H]1CC(=O)NN=C1c1ccc(NN=C(C#N)C#N)cc1 was what?
Result: inactive

Query: In this assay, the call recorded for Cn1c(=O)c2[nH]cnc2n(C)c1=O was what?
Result: inactive

Query: In this assay, the call recorded for CC12CC3CC(C)(C1)CC(N)(C3)C2 was what?
Result: inactive

Query: In this assay, the call recorded for CCC1(c2ccccc2)C(=O)NCNC1=O was what?
Result: inactive

Query: In this assay, the call recorded for COc1cc2c(c(OC)c1OC)-c1ccc(OC)c(=O)cc1[C@@H](NC(C)=O)CC2 was what?
Result: inactive

Query: In this assay, the call recorded for COc1ccc2c(c1)c(CC(=O)O)c(C)n2C(=O)c1ccc(Cl)cc1 was what?
Result: inactive

Query: In this assay, the call recorded for CN1CCN(C2=Nc3cc(Cl)ccc3Nc3ccccc32)CC1 was what?
Result: inactive

Further cases:
Query: In this assay, the call recorded for CS(=O)(=O)CCNCc1ccc(-c2ccc3ncnc(Nc4ccc(OCc5cccc(F)c5)c(Cl)c4)c3c2)o1 was what?
Result: active

Query: In this assay, the call recorded for Cc1ccc(-c2cc(C(F)(F)F)nn2-c2ccc(S(N)(=O)=O)cc2)cc1 was what?
Result: inactive

Query: In this assay, the call recorded for Clc1ccc(C(c2ccccc2Cl)C(Cl)Cl)cc1 (stereo not drawn) was what?
Result: inactive

Query: In this assay, the call recorded for COc1ccc(CCN(C)CCCC(C#N)(c2ccc(OC)c(OC)c2)C(C)C)cc1OC (stereo not drawn) was what?
Result: inactive

Query: In this assay, the call recorded for CN(C)C(=N)N=C(N)N was what?
Result: inactive

Query: In this assay, the call recorded for NCCS(=O)(=O)O was what?
Result: inactive

Query: In this assay, the call recorded for NCCCCCC(=O)O was what?
Result: inactive

Query: In this assay, the call recorded for COC(=O)Nc1nc2ccc(C(=O)c3cccs3)cc2[nH]1 was what?
Result: inactive

Query: In this assay, the call recorded for Cc1cc(C(C)(C)C)cc(C)c1CC1=NCCN1 was what?
Result: inactive

Query: In this assay, the call recorded for CN(C)CCC=C1c2ccccc2C=Cc2ccccc21 was what?
Result: inactive
